Reference source for all entries: patent US9145354B2

Biological target: full length NS3/4a (Hepatitis C virus genotype 1b (isolate BK) (HCV))
Test: NS3 Protease Assay (Example A), FRET-based
Type: biochemical
Conditions: @ 30 uM
Kindly supply the reported inhibition at 30 µM values for the records listed here.
Answers are plain numbers, in %.

Please review the following examples before continuing.
CC[C@@H](N)c1ccc(Cl)c(C(=O)c2ccc[n+]([O-])c2)c1F	59
CC[C@@H](N[C@H](C)c1cn[nH]c1)c1ccc(Cl)c(C(=O)c2cccnc2)c1F	48
CC[C@@H](N)c1ccc(Cl)c(C(=O)c2cncnc2)c1F	47

Give inhibition at 30 µM for all compounds that follow.
1. CC[C@@H](N[C@H](C)CC(N)=O)c1ccc(Cl)c(C(=O)c2ccc(OC)c(C#N)c2)c1F
2. CC[C@@H](N[C@H](C)CC(N)=O)c1ccc(Cl)c(C(=O)c2ccccn2)c1F
3. CC[C@@H](N[C@H](C)CC(N)=O)c1ccc(Cl)c(C(=O)c2ccc(N(C)C)nc2)c1F

Outgoing:
38
57
60

----------
Target: full length NS3/4a (Hepatitis C virus genotype 1b (isolate BK) (HCV))
Assay: NS3 Protease Assay (Example A), FRET-based
Assay type: biochemical
Details: @ 10 uM
Provide the reported inhibition at 10 µM of each item.
Answers are plain numbers, in %.

Please review the entries below; each comes with its answer.
CC[C@@H](N[C@@H]1CCOC1)c1ccc(Cl)c(C(=O)c2cccnc2)c1F [Example 292]	4
CC[C@@H](NCc1cn[nH]c1)c1ccc(Cl)c(C(=O)c2cccnc2)c1F [Example 299]	32
CC[C@@H](N)c1ccc(Cl)c(C(=O)c2cncc(N)c2)c1F [Example 45]	50
CCC(NC1(C(N)=O)CC1)c1ccc(Cl)c(C(=O)c2ccccc2)c1F (centres unmarked) [Example 184]	22
CC[C@@H](N[C@H]1CCOC1)c1ccc(Cl)c(C(=O)c2cccnc2)c1F [Example 293]	11

Could you tell me inhibition at 10 µM for each of these compounds? They are listed below.
1. CC[C@@H](N[C@H](C)CC(N)=O)c1ccc(Cl)c(C(=O)c2ccc(=O)[nH]c2)c1F [Example 148]
2. CC[C@@H](N[C@@H](C)c1cn[nH]c1)c1ccc(Cl)c(C(=O)c2cccnc2)c1F [Example 301]
3. CC[C@@H](N)c1ccc(Cl)c(C(=O)c2ccc(Cl)nn2)c1F [Example 214]

Outgoing:
[43, 65, 51]

----------
Biological target: full length NS3/4a (Hepatitis C virus genotype 1b (isolate BK) (HCV), UniProt P26663)
Sequence (P26663 1027-1657): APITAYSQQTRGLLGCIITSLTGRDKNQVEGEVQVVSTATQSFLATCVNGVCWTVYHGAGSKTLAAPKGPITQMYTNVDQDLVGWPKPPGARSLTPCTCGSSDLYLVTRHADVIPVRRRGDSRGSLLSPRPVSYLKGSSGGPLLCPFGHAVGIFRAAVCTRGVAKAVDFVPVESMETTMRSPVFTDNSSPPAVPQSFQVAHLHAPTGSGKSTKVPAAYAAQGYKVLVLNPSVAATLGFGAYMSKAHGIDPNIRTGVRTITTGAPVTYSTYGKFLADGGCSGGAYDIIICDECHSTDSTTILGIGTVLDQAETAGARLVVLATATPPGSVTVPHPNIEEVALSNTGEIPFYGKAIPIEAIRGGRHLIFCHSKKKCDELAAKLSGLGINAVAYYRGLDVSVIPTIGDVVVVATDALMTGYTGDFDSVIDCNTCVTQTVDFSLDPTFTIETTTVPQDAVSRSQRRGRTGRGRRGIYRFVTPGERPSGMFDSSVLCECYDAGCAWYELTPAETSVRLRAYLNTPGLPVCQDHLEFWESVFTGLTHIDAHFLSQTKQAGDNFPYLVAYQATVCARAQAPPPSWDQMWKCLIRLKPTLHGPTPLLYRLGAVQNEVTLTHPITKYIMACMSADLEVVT
Assay: NS3 Protease Assay (Example A), FRET-based
Type: biochemical
Settings: HCV NS3 protease assay, full length NS3/4a; read-out: Assay A IC50 (μM) average
Measured endpoint: IC50

// each molecule listed below needs its IC50
1. C[C@H](CC(N)=O)N[C@@H](c1ccc(Cl)c(C(=O)c2ccccc2)c1F)C1CC1
2. N[C@@H](c1ccc(Cl)c(C(=O)c2ccccc2)c1F)C1CC1
3. CC[C@H](N[C@@H](C)CC(N)=O)c1ccc(Cl)c(C(=O)c2ccccc2)c1F
4. Nc1ccc(C(=O)c2c(Cl)ccc([C@H](N)C3CC3)c2F)cn1

Outgoing:
1: 0.62 µM; 2: 0.13 µM; 3: 1 µM; 4: 0.18 µM

----------
I'd be grateful if you could share measured CC50 at 72 h for these entries.
Assay: Replicon Assay (Example B), Alamar Blue cytotoxicity CC50
Type: cell-based
Conditions: human, lower value of the cell pair

Sample records with CC50 at 72 h:
CC[C@@H](NC(C)(C)CC(N)=O)c1ccc(Cl)c(C(=O)c2ccc(N)nc2)c1F [Example 250]	> 1000 nM
CC[C@@H](N[C@@H](C)CC(N)=O)c1ccc(Cl)c(C(=O)c2cncc(N)c2)c1F [Example 145]	> 10000 nM

Incoming: Entry C[C@@H](CC(N)=O)N[C@@H](c1ccc(Cl)c(C(=O)c2cccnc2)c1F)C1CC1 [Example 119] has what CC50 at 72 h?
Outgoing: > 3000 nM
